Entry source: patent US20060257396A1

- testSystem: T1, Aβ peptide (β-amyloid peptide; form and length not stated for the assay) (UniProt P05067 672-713)
- T1 construct: also called beta amyloid peptide
- runDescription: BIAcore, Langmuir model (global analysis)
quantityKind: kon (M⁻¹ s⁻¹)
API: value field is a number in M⁻¹ s⁻¹; no unit string.

Look over these answered cases.
# binder, kon, M⁻¹ s⁻¹
measured = [
    ("humanized 12A11 version 2.1 (antibody, V domains shown, Variable regions only; made like version 2; also called h12A11v2.1) VH: QVQLVESGGGVVQPGRSLRLSCAFSGFTLSTSGMSVGWIRQAPGKGLEWVAHIWWDDDKYYNPSLKSRFTISKDNSKNTLYLQMNSLRAEDTAVYYCARRTTTADYFAYWGQGTTVTVSS VL: DVVMTQSPLSLPVTPGEPASISCRSSQSIVHSNGNTYLEWYLQKPGQSPQLLIYKVSNRFSGVPDRFSGSGSGTDFTLKISRVEAEDVGVYYCFQSSHVPLTFGQGTKLEIK", 306000),
    ("humanized 12A11 version 1 (antibody, V domains shown, Variable regions only tied to the tested antibody; also called h12A11v1; humanized 12A11 v1) VH: QVQLVESGGGVVQPGRSLRLSCAFSGFSLSTSGMSVGWIRQAPGKGLEWLAHIWWDDDKYYNPSLKSRLTISKDTSKNTVYLQMNSLRAEDTAVYYCARRTTTADYFAYWGQGTTVTVSS VL: DVVMTQSPLSLPVTPGEPASISCRSSQSIVHSNGNTYLEWYLQKPGQSPQLLIYKVSNRFSGVPDRFSGSGSGTDFTLKISRVEAEDVGVYYCFQSSHVPLTFGQGTKLEIK", 408000),
    ("humanized 12A11 version 2 (antibody, V domains shown, V region subcloned into heavy chain expression vector pCMV-Cgamma1 (human γ1); also called h12A11v2) VH: QVQLVESGGGVVQPGRSLRLSCAFSGFTLSTSGMSVGWIRQAPGKGLEWVAHIWWDDDKYYNPSLKSRFTISKDTSKNTLYLQMNSLRAEDTAVYYCARRTTTADYFAYWGQGTTVTVSS VL: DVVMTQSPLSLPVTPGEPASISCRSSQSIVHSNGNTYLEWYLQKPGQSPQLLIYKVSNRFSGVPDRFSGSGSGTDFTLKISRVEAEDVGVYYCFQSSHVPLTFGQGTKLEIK", 283000),
    ("humanized 12A11 version 3.1 (antibody, V domains shown, Variable regions only tied to the tested antibody; also called h12A11v3.1; humanized 12A11 v3.1) VH: QVQLVESGGGVVQPGRSLRLSCAFSGFTLSTSGMSVGWIRQAPGKGLEWLAHIWWDDDKYYNPSLKSRFTISKDNSKNTLYLQMNSLRAEDTAVYYCARRTTTADYFAYWGQGTTVTVSS VL: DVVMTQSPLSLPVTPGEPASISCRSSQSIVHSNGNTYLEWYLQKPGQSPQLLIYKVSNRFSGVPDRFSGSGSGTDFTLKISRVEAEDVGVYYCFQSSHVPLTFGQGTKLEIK", 523000),
]

Moving on to another binder below.
Ask | Entry humanized 12A11 version 3 (antibody, V domains shown, Variable regions only; made like version 2; also called h12A11v3; humanized 12A11 v3) VH: QVQLVESGGGVVQPGRSLRLSCAFSGFTLSTSGMSVGWIRQAPGKGLEWVAHIWWDDDKYYNPSLKSRFTISRDNSKNTLYLQMNSLRAEDTAVYYCARRTTTADYFAYWGQGTTVTVSS VL: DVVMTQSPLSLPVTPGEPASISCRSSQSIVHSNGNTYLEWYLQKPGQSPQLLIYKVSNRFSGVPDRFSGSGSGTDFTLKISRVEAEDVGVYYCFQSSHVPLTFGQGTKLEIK : reported kon = ?
Reply | 359000
